# Tested on: Enterococcus faecalis A20688
# experiment-description: MIC, broth micro dilution assay (NCCLS)
# Format: cell-based
# run-conditions: Mueller-Hinton medium, 35° C., 18 hours
metric: MIC (μg/mL) against Enterococcus faecalis A20688 (µg/mL)

compound	unit-text	measured-result
COC(C)=C1NC(=O)C(C(C)O)NC(=O)c2csc(n2)-c2cc(O)c(-c3nc(C(=O)NC(CN4CCCC4C(O)C4CCCCC4)C(N)=O)cs3)nc2-c2csc(n2)C2COC(=O)c3c4c5c(cccc5n3O)COC(=O)C(OC3CC(C)(O)C(N(C)C)C(C)O3)C(OC4)C(NC(=O)c3csc1n3)c1nc(cs1)C(=O)N2 (centres unmarked)	µg/mL	0.06
